Assign selectivity ratio to each entry below.
- TEST_DETAILS: Selectivity index, ratio of EC50 for hemolytic activity in human RBC assessed as hemolysis to MIC for antimicrobial activity against Escherichia coli ATCC 25922 assessed as inhibition of bacterial growth
- Format: toxicity
- STATED_CONDITIONS: human red blood cells (erythrocytes), read-out: Selectivity Index
One number for each entry.

Lab book: selectivity ratio of "N=C(N)NCCCN1C(=O)N(CCCNC(=N)N)C(Cc2cc(Br)cc(Br)c2)(Cc2cc(Br)cc(Br)c2)C1=O.O=C(O)C(F)(F)F.O=C(O)C(F)(F)F" noted as 30

Value of selectivity ratio reported for the compound "N=C(N)NCCCCN1C(=O)N(CCCCNC(=N)N)C(Cc2cc(Br)cc(Br)c2)(Cc2cc(Br)cc(Br)c2)C1=O.O=C(O)C(F)(F)F.O=C(O)C(F)(F)F" is 52

Recorded selectivity ratio (compound "N=C(N)NCCCCN1C(=O)N(CCCCNC(=N)N)C(Cc2ccc(Br)c(Cl)c2)(Cc2ccc(Br)c(Cl)c2)C1=O.O=C(O)C(F)(F)F.O=C(O)C(F)(F)F" ): 43

Just so you know, measured selectivity ratio for "N=C(N)NCCCN1C(=O)N(CCCNC(=N)N)C(Cc2ccc(Br)c3ccccc23)(Cc2ccc(Br)c3ccccc23)C1=O.O=C(O)C(F)(F)F.O=C(O)C(F)(F)F" came out at 26

Documented selectivity ratio of "NCCCN1C(=O)N(CCCN)C(Cc2cc(Br)cc(Br)c2)(Cc2cc(Br)cc(Br)c2)C1=O.O=C(O)C(F)(F)F.O=C(O)C(F)(F)F" : 22

Reported selectivity ratio ( "N=C(N)NCCCCN1C(=O)N(CCCCNC(=N)N)C(Cc2cc(C(F)(F)F)cc(C(F)(F)F)c2)(Cc2cc(C(F)(F)F)cc(C(F)(F)F)c2)C1=O.O=C(O)C(F)(F)F.O=C(O)C(F)(F)F" ) = 48

---
// sample "NCCCN1C(=O)N(CCCN)C(Cc2cc(C(F)(F)F)cc(C(F)(F)F)c2)(Cc2cc(C(F)(F)F)cc(C(F)(F)F)c2)C1=O.O=C(O)C(F)(F)F.O=C(O)C(F)(F)F" , its selectivity ratio was 25

###

- TEST_DETAILS: Hemolytic activity in human RBC assessed as hemolysis incubated for 1 hr by absorbance based microplate reader analysis
- Assay type: toxicity, cell-based, Erythrocyte
- STATED_CONDITIONS: human red blood cells (erythrocytes)
MEASUREMENT_TYPE: EC50 at 1 h (µg/mL)
Answers are plain numbers, in µg/mL.

The compound identified as "N=C(N)NCCCN1C(=O)N(CCCNC(=N)N)C(Cc2ccc(Br)c3ccccc23)(Cc2ccc(Br)c3ccccc23)C1=O.O=C(O)C(F)(F)F.O=C(O)C(F)(F)F" registered its EC50 at 1 h at 206

Read the next record carefully.
// EC50 at 1 h value for "NCCCN1C(=O)N(CCCN)C(Cc2cc(C(F)(F)F)cc(C(F)(F)F)c2)(Cc2cc(C(F)(F)F)cc(C(F)(F)F)c2)C1=O.O=C(O)C(F)(F)F.O=C(O)C(F)(F)F" : 399

###

- TEST_DETAILS: Selectivity index, ratio of EC50 for hemolytic activity in human RBC assessed as hemolysis to MIC for antimicrobial activity against Pseudomonas aeruginosa ATCC 27853 assessed as inhibition of bacterial growth
- Assay type: toxicity
- STATED_CONDITIONS: human red blood cells (erythrocytes), read-out: Selectivity Index
MEASUREMENT_TYPE: selectivity ratio
One number for each entry.

Lab note: measured selectivity ratio of "NCCCN1C(=O)N(CCCN)C(Cc2cc(C(F)(F)F)cc(C(F)(F)F)c2)(Cc2cc(C(F)(F)F)cc(C(F)(F)F)c2)C1=O.O=C(O)C(F)(F)F.O=C(O)C(F)(F)F" was 25

Reported selectivity ratio ( "N=C(N)NCCCCN1C(=O)N(CCCCNC(=N)N)C(Cc2cc(Br)cc(Br)c2)(Cc2cc(Br)cc(Br)c2)C1=O.O=C(O)C(F)(F)F.O=C(O)C(F)(F)F" ) = 13

Continuing:
The recorded selectivity ratio for entry "NCCCN1C(=O)N(CCCN)C(Cc2cc(Br)cc(Br)c2)(Cc2cc(Br)cc(Br)c2)C1=O.O=C(O)C(F)(F)F.O=C(O)C(F)(F)F" equals 43

###

Kindly supply the reported log10 EC50 at 1 h values for the records listed here.
- TEST_DETAILS: Hemolytic activity in human RBC assessed as hemolysis incubated for 1 hr by absorbance based microplate reader analysis
- Assay type: toxicity, cell-based, Erythrocyte
- STATED_CONDITIONS: human red blood cells (erythrocytes)
The base-10 logarithm of EC50 at 1 h, taken with EC50 at 1 h in µg/mL, is what appears here.

Consider the reported log10 EC50 at 1 h for these compounds:
// sample "NCCCN1C(=S)N(CCCN)C(Cc2cc(Br)cc(Br)c2)(Cc2cc(Br)cc(Br)c2)C1=S.O=C(O)C(F)(F)F.O=C(O)C(F)(F)F" , its log10 EC50 at 1 h was 2.59

// "NCCCN1C(=O)N(CCCN)C(Cc2cc(Br)cc(Br)c2)(Cc2cc(Br)cc(Br)c2)C1=O.O=C(O)C(F)(F)F.O=C(O)C(F)(F)F" : log10 EC50 at 1 h value = 2.54

Sample "N=C(N)NCCCCN1C(=O)N(CCCCNC(=N)N)C(Cc2cc(C(F)(F)F)cc(C(F)(F)F)c2)(Cc2cc(C(F)(F)F)cc(C(F)(F)F)c2)C1=O.O=C(O)C(F)(F)F.O=C(O)C(F)(F)F" ; log10 EC50 at 1 h observed: 2.58

Items follow; give log10 EC50 at 1 h for each.
1. NCCCOc1nc(Cc2cc(Br)cc(Br)c2)c(Cc2cc(Br)cc(Br)c2)n1CCCN.O=C(O)C(F)(F)F.O=C(O)C(F)(F)F
2. NCCCCN1C(=O)N(CCCCN)C(Cc2cc(Br)cc(Br)c2)(Cc2cc(Br)cc(Br)c2)C1=O.O=C(O)C(F)(F)F.O=C(O)C(F)(F)F
3. N=C(N)NCCCCN1C(=O)N(CCCCNC(=N)N)C(Cc2cc(Br)cc(Br)c2)(Cc2cc(Br)cc(Br)c2)C1=O.O=C(O)C(F)(F)F.O=C(O)C(F)(F)F
4. N=C(N)NCCCN1C(=O)N(CCCNC(=N)N)C(Cc2cc(Br)cc(Br)c2)(Cc2cc(Br)cc(Br)c2)C1=O.O=C(O)C(F)(F)F.O=C(O)C(F)(F)F

[1.64, 2.56, 2.31, 2.69]

###

- TEST_DETAILS: Selectivity index, ratio of EC50 for hemolytic activity in human RBC assessed as hemolysis to MIC for antimicrobial activity against Staphylococcus aureus ATCC 9144 assessed as inhibition of bacterial growth
- Assay type: toxicity
- STATED_CONDITIONS: human red blood cells (erythrocytes), read-out: Selectivity Index
MEASUREMENT_TYPE: selectivity ratio

Would you please look over these solved cases?
Recorded selectivity ratio (molecule "NCCCN1C(=O)N(CCCN)C(Cc2cc(Br)cc(Br)c2)(Cc2cc(Br)cc(Br)c2)C1=O.O=C(O)C(F)(F)F.O=C(O)C(F)(F)F" ): 43

selectivity ratio in this record for "N=C(N)NCCCN1C(=O)N(CCCNC(=N)N)C(Cc2cc(C(F)(F)F)cc(C(F)(F)F)c2)(Cc2cc(C(F)(F)F)cc(C(F)(F)F)c2)C1=O" : > 122

Next:
selectivity ratio for "N=C(N)NCCCCN1C(=O)N(CCCCNC(=N)N)C(Cc2ccc(Br)c(Cl)c2)(Cc2ccc(Br)c(Cl)c2)C1=O.O=C(O)C(F)(F)F.O=C(O)C(F)(F)F" is 347

###

Please provide measured EC50 at 1 h for the entries that follow.
- TEST_DETAILS: Hemolytic activity in human RBC assessed as hemolysis incubated for 1 hr by absorbance based microplate reader analysis
- Format: toxicity, cell-based, Erythrocyte
- STATED_CONDITIONS: human red blood cells (erythrocytes)
Answers are plain numbers, in µg/mL.

// solved cases for EC50 at 1 h follow
Lab note: "NCCCn1c(Cc2cc(Br)cc(Br)c2)c(Cc2cc(Br)cc(Br)c2)n(CCCN)c1=O.O=C(O)C(F)(F)F.O=C(O)C(F)(F)F" gave EC50 at 1 h of 52

The molecule listed as "N=C(N)NCCCCN1C(=O)N(CCCCNC(=N)N)C(Cc2ccc(Br)c(Cl)c2)(Cc2ccc(Br)c(Cl)c2)C1=O.O=C(O)C(F)(F)F.O=C(O)C(F)(F)F" has a reported EC50 at 1 h of 347

GET /value?item= "NCCCN1C(=O)N(CCCN)C(Cc2ccc(Br)c3ccccc23)(Cc2ccc(Br)c3ccccc23)C1=O.O=C(O)C(F)(F)F.O=C(O)C(F)(F)F" &field=EC50 at 1 h returns 69

Next:
Looking up "NCCCN1C(=O)N(CCCN)C(Cc2ccc(Br)c(Cl)c2)(Cc2ccc(Br)c(Cl)c2)C1=O.O=C(O)C(F)(F)F.O=C(O)C(F)(F)F" , I see its EC50 at 1 h listed as 368
